# ASSAY: chemical genetic growth profiling, strain panel (AID 1159580);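 note: tested at 20 µM; growth read once vehicle control cultures reached saturation at 30 °C; 1 = growth at the plate median or of vehicle wells; lower values mean less growth of the strain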
# CONDITIONS: S. cerevisiae deletion strains, growth OD, locus YPR163C, strain tif3, active compounds read low
The campaign covered roughly 5,500 compounds. About 2,000 (36%) were called active. Not shown: some 18% with an inconclusive outcome. Some of the results follow.
MEASURED ENDPOINT: normalized growth
Give the value as a plain number.

Known results for compounds:
>  <COMPOUND>
C/C=C(/C)C(=O)OC1CCC2(C)C3CCC4C5(O)CC(O)C6(O)C(CN7CC(C)CCC7C6(C)O)C5(O)CC42OC13O (stereo unspecified)

>  <normalized growth>
0.964

$$$$
>  <COMPOUND>
NC(Cc1c[nH]c2ccccc12)C(=O)O (stereo unspecified)

>  <normalized growth>
0.998

$$$$
>  <COMPOUND>
CC1(C)CC[C@]2(C(=O)O)CC[C@]3(C)C(=CCC4[C@@]5(C)CC[C@@H](O)C(C)(C)C5CC[C@]43C)C2C1 (stereo partly specified)

>  <normalized growth>
1.02

$$$$

What does the data say about its normalized growth? Entry: COc1c(CC(=O)c2cc3c(cc2O)OC(C)(C)C(O)C3)ccc2c1C=CC(C)(C)O2 (stereo unspecified)
0.988

So what does the record say about normalized growth for O=C1C(O)=C(O)C(=O)C(O)=C1O ?
0.998

Bench note: what normalized growth did Nc1c2ccccc2nc2ccccc12 (tested in a mixture with another compound) show?
0.964

normalized growth for C#C[C@]1(O)CCC2C3CCC4=CC(=O)CC[C@@H]4C3CC[C@@]21CC (stereo partly specified) ?
0.99

Recorded normalized growth for Cc1cn([C@H]2C[C@H](N=[N+]=[N-])[C@@H](CO)O2)c(=O)[nH]c1=O , please?
1.01

Consider the compound CC(C)(Sc1cc(C(C)(C)C)c(O)c(C(C)(C)C)c1)Sc1cc(C(C)(C)C)c(O)c(C(C)(C)C)c1 and give its measured normalized growth.
1.02

GET /values?readout=normalized growth&item= CCCOc1ccccc1-c1nc2n[nH]nc2c(=O)[nH]1
1.02

Consider the compound shown here: C#C[C@]1(OC(C)=O)CCC2C3CCC4=CC(=O)CC[C@@H]4C3CC[C@@]21C (stereo partly specified) What is its recorded normalized growth?
0.966

Request the reported normalized growth associated with NC(N)=N/N=C/c1c(Cl)cccc1Cl
1.02

Fill in: normalized growth of COC(=O)C[C@H]1C(C)(C)C(=O)[C@@H]2CC3C4=CC(=O)O[C@@H](c5ccoc5)[C@]4(C)CCC3[C@@]1(C)C2=O (stereo partly specified) is ___
0.985

Item CC(C)CC(N(C)C)C1(c2ccc(Cl)cc2)CCC1 (stereo unspecified) has what recorded normalized growth?
1.02

Fill in: normalized growth of O=C(O)/C=C1\CCCc2ccccc2C1O (stereo unspecified) is ___
0.99

For the compound Nc1c2c(nc3ccccc13)CCCC2O (stereo unspecified) , what normalized growth is on record?
0.973

----------
A collection of compounds and their measured normalized growth
# ASSAY: chemical genetic growth profiling, strain panel (AID 1159580)
# CONDITIONS: S. cerevisiae deletion strains, growth OD, locus YDL185W, strain tfp1, active compounds read low
Hit rate of the full screen: of about 5,500 compounds, about 2,000 (36%) were called active. About 18% were inconclusive and are not listed. Some of the results follow.

// below: answered compounds
>  <COMPOUND>
COc1ccc2c(c1)c(CC(=O)O)c(C)n2C(=O)c1ccc(Cl)cc1

>  <normalized growth>
0.973 (inactive)

$$$$
>  <COMPOUND>
CC1(C)CC[C@]2(C(=O)O)CC[C@]3(C)C(=CCC4[C@@]5(C)CC[C@@H](O)C(C)(C)C5CC[C@]43C)C2C1 (some centres not stated)

>  <normalized growth>
1.02 (inactive)

$$$$
>  <COMPOUND>
C[C@@H]1OC(O[C@H]2[C@H](OC(=O)[C@]34CCC(C)(C)CC3C3=CCC5[C@@]6(C)CC[C@H](OC7O[C@@H](C)[C@H](O[C@@H]8OC[C@@H](O)[C@H](O)[C@H]8O)[C@@H](O)[C@H]7O)C(C)(C)C6CC[C@@]5(C)[C@]3(C)CC4O)OC[C@H](O)[C@H]2O)[C@H](O)[C@H](O)[C@H]1O[C@@H]1O[C@H](CO)[C@@H](O)[C@H](O)[C@H]1O (some centres not stated)

>  <normalized growth>
0.974 (inactive)

$$$$
>  <COMPOUND>
C[C@@H]1CC[C@H]2[C@@H](C)C(=O)O[C@@H]3O[C@@]4(C)CC[C@@H]1[C@]32OO4

>  <normalized growth>
0.875 (active)

$$$$
>  <COMPOUND>
NC(Cc1c[nH]c2ccccc12)C(=O)O (configuration not stated)

>  <normalized growth>
0.986 (inactive)

$$$$
>  <COMPOUND>
O=C(O)/C=C1\CCCc2ccccc2C1O (configuration not stated)

>  <normalized growth>
0.945 (inactive)

$$$$

# next compound below
Using the record for C[C@@H]1CC[C@H]2[C@@H](C)C(O)O[C@@H]3O[C@@]4(C)CC[C@@H]1[C@]32OO4 (some centres not stated) , report its normalized growth.
0.139 (active)

----------
# Lookup of reported normalized growth keyed by entry
# ASSAY: chemical genetic growth profiling, strain panel (AID 1159580)
# CONDITIONS: S. cerevisiae deletion strains, growth OD, locus YMR263W, strain SAP30, active compounds read low
The whole screen tested about 5,500 compounds, of which about 2,000 (36%) were called active. Not shown: some 18% with an inconclusive outcome. The list shows a part of the results.
// keep it numeric: no unit symbol after the value

Known results for molecules:
>  <MOLECULE>
CC1(C)CC[C@]2(C)CC[C@]3(C)C(=CCC4[C@@]5(C)CC[C@H](O)C(C)(C)C5CC[C@]43C)C2C1 (stereo partly drawn)

>  <normalized growth>
0.979

$$$$
>  <MOLECULE>
c1cc2c(cc1N=C1SCC3CCCCN13)OCO2 (stereo not drawn)

>  <normalized growth>
1.01

$$$$

# lookup: normalized growth of C[C@@H]1C(=O)O[C@H]2[C@H]1CC[C@@]1(C)C=CC(=O)[C@@]3(C)O[C@@]213
1.02

----------
# ASSAY: chemical genetic growth profiling, strain panel (AID 1159580);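 note: tested at 20 µM; growth read once vehicle control cultures reached saturation at 30 °C; 1 = growth at the plate median or of vehicle wells; lower values mean less growth of the strain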
# CONDITIONS: S. cerevisiae deletion strains, growth OD, locus YMR219W, strain ESC1, active compounds read low
Out of some 5,500 compounds screened, about 2,000 (36%) were called active. About 18% were inconclusive and are not listed. The list shows a part of the results.
MEASURED ENDPOINT: normalized growth
No unit in the answer, please; the number alone is enough.

>  <INPUT SMILES>
Cc1c(S(=O)(=O)c2ccc(Cl)cc2)cnc2cc(C(C)(C)C)nn12

>  <MEASURED VALUE>
1.01

$$$$
>  <INPUT SMILES>
O=C1CC(CSc2ccc(Cl)cc2)=NN1

>  <MEASURED VALUE>
0.918

$$$$
>  <INPUT SMILES>
O=C(N/N=C\c1c(O)ccc2ccccc12)N/N=C\c1c(O)ccc2ccccc12

>  <MEASURED VALUE>
1.02

$$$$

Find the recorded normalized growth belonging to COc1ccc(Oc2cc(C)nc3ccccc23)cc1 and report it.
1.01

----------
Listing of recorded normalized growth by entry.
# ASSAY: chemical genetic growth profiling, strain panel (AID 1159580);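 note: tested at 20 µM; growth read once vehicle control cultures reached saturation at 30 °C; 1 = growth at the plate median or of vehicle wells; lower values mean less growth of the strain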
# CONDITIONS: S. cerevisiae deletion strains, growth OD, locus YER002W, strain NOP16, active compounds read low
Out of some 5,500 compounds screened, about 2,000 (36%) were called active. About 18% were inconclusive and are not listed. This is one part of the list.
Form: value (number only, do not type unit).

# count of solved cases: 5
>  <COMPOUND>
NCC#Cc1ccccc1

>  <normalized growth>
1

$$$$
>  <COMPOUND>
COc1ccc2[nH]cc(CCN)c2c1

>  <normalized growth>
1.01

$$$$
>  <COMPOUND>
N=C(N)SCCN

>  <normalized growth>
0.986

$$$$
>  <COMPOUND>
N=C(N)c1ccc(N)cc1

>  <normalized growth>
0.997

$$$$
>  <COMPOUND>
Oc1ccc2c3c1O[C@H]1[C@@H](O)CC[C@@]4(O)C(C2)N(CC2CCC2)CCC314 (stereo partly specified)

>  <normalized growth>
1

$$$$

Now, please, on to the next compound.
Given the entry COc1ccc2c(c1)c(CC(=O)O)c(C)n2C(=O)c1ccccc1 , report its measured normalized growth.
1

----------
# ASSAY: chemical genetic growth profiling, strain panel (AID 1159580);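 note: tested at 20 µM; growth read once vehicle control cultures reached saturation at 30 °C; 1 = growth at the plate median or of vehicle wells; lower values mean less growth of the strain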
# CONDITIONS: S. cerevisiae deletion strains, growth OD, locus YNL271C, strain bni1, active compounds read low
Among all 5,500 compounds or so, about 2,000 (36%) were called active. Roughly 18% stayed inconclusive and do not appear here. Some of the results follow.
The molecules listed here are annotated with their normalized growth.
Lab note: record just the number, no unit beside it.

Look over these answered cases.
>  <MOLECULE>
CC(C)(C#N)O[C@@H]1O[C@H](CO)[C@@H](O)[C@H](O)[C@H]1O

>  <normalized growth>
0.987

$$$$
>  <MOLECULE>
CNCc1ccccc1

>  <normalized growth>
0.994

$$$$
>  <MOLECULE>
COc1ccc2[nH]cc(CCN)c2c1

>  <normalized growth>
0.996

$$$$
>  <MOLECULE>
Cc1cn([C@H]2C[C@H](N=[N+]=[N-])[C@@H](CO)O2)c(=O)[nH]c1=O

>  <normalized growth>
1.02

$$$$
>  <MOLECULE>
NCCC(=O)N[C@@H](Cc1cnc[nH]1)C(=O)O

>  <normalized growth>
0.988

$$$$
>  <MOLECULE>
CC(=O)/C=C\[C@@H]1[C@@]2(C)CCCC(C)(C)C2CC[C@@]1(C)O (stereo partly drawn)

>  <normalized growth>
0.991

$$$$

Fill blank: measured normalized growth of the molecule Nc1c2ccccc2nc2ccccc12 is ____.
0.87

Requested read-out: normalized growth. Entry: C#C[C@]1(O)CCC2C3CCC4=C(CCC(=O)C4)C3CC[C@@]21C (stereo partly drawn)
0.991
